# credit: paper PMC9686747

Target: α-glucosidase (Saccharomyces cerevisiae)
Construct: purchased Sigma-Aldrich
Sequence (P53341 whole entry): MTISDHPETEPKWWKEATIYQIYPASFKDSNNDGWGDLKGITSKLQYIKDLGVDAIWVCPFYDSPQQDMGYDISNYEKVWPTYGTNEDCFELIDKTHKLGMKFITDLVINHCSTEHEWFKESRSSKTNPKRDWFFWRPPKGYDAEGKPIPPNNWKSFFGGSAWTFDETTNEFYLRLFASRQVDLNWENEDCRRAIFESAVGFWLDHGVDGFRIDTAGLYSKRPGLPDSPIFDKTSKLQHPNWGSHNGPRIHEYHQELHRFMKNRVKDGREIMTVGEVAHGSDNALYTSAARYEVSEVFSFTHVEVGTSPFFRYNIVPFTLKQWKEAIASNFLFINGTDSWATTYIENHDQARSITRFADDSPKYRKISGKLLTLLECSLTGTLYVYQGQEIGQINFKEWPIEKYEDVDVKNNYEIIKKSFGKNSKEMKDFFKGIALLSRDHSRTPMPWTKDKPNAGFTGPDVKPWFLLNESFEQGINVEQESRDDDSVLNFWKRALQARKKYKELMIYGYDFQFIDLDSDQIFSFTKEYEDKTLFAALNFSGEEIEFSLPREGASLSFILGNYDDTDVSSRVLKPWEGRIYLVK
Assay: biochemical
Format: biochemical
Details: isolated compounds; read-out: IC50 α-Glucosidase
measure: IC50
Answer shape: numeric part, then the unit.

Some compounds with known IC50 results, for comparison:
compound	targetOfAssay	observedValue
CC(C)=CCc1c(O)ccc(C(=O)[C@@H]2[C@@H](c3c(O)cc(O)c4c(=O)c(CC=C(C)C)c(-c5ccc(O)cc5O)oc34)C=C(C)C[C@H]2c2ccc(O)cc2O)c1O [Kuwanon H (6), kuwanon H]	α-glucosidase (Saccharomyces cerevisiae)	4.06 µM
O=c1ccc2ccc(O)cc2o1 [Umbelliferone (4), umbelliferone]	α-glucosidase (Saccharomyces cerevisiae)	492 µM

Query: // IC50 lookup, key: CC(C)=CCc1c(-c2ccc(O)cc2O)oc2c3c(cc(O)c2c1=O)OC(C)(C)C=C3 [Morusin (2), morusin]
Reply: 15.7 µM

====

Target: α-glucosidase (Saccharomyces cerevisiae)
Construct: purchased Sigma-Aldrich
Assay: biochemical
Format: biochemical
measure: IC50 (µM)
Reply numerically in µM, unit not repeated.

1) Oc1cc(O)cc(/C=C/c2ccc(O)cc2O)c1 8.35
2) O=c1c(O)c(-c2ccc(O)cc2O)oc2cc(O)cc(O)c12 90.1

Query: // IC50 lookup, key: `CC(C)=CCc1c(-c2ccc(O)cc2O)oc2c([C@H]3C=C(C)C[C@@H](c4ccc(O)cc4O)[C@@H]3C(=O)c3ccc(O)cc3O)c(O)cc(O)c2c1=O`
Reply: 7

====

Biological target: tyrosinase (Agaricus bisporus, UniProt C7FF04)
Construct: purchased Sigma-Aldrich
Sequence (C7FF04 1-392 limits assumed): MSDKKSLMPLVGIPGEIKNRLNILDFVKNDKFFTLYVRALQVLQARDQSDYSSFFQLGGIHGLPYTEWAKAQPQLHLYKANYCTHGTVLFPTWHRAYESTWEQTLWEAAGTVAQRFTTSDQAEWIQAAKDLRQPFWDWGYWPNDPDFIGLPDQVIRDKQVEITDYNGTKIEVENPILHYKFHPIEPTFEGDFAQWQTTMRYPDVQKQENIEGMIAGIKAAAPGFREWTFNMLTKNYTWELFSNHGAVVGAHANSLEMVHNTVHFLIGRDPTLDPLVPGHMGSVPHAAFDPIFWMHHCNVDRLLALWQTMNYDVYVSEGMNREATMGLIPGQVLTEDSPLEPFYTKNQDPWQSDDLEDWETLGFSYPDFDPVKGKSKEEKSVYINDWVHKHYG
Experiment: Tyrosinase inhibitory activity assay
Assay type: biochemical
measure: pIC50
Scale: negative log10 of molar concentration, which is what pIC50 denotes.

Some compounds with known pIC50 results, for comparison:
compound	targetOfAssay	pIC50
Oc1cc(O)cc(/C=C/c2ccc(O)cc2O)c1 [Oxyresveratrol (3), oxyresveratrol]	tyrosinase (Agaricus bisporus, UniProt C7FF04)	5.72
O=c1c(O)c(-c2ccc(O)cc2O)oc2cc(O)cc(O)c12 [Morin (1), morin]	tyrosinase (Agaricus bisporus, UniProt C7FF04)	3.70
CC(C)=CCc1c(O)ccc(C(=O)[C@@H]2[C@@H](c3c(O)cc(O)c4c(=O)c(CC=C(C)C)c(-c5ccc(O)cc5O)oc34)C=C(C)C[C@H]2c2ccc(O)cc2O)c1O [Kuwanon H (6), kuwanon H]	tyrosinase (Agaricus bisporus, UniProt C7FF04)	3.66

Query: // pIC50 lookup, key: CC(C)=CCc1c(-c2ccc(O)cc2O)oc2c([C@H]3C=C(C)C[C@@H](c4ccc(O)cc4O)[C@@H]3C(=O)c3ccc(O)cc3O)c(O)cc(O)c2c1=O [Kuwanon G (5), kuwanon G]
Reply: 4.00

====

Test: DPPH radical scavenging activity
Assay type: biochemical
Details: isolated components; read-out: SC50 DPPH
Overview of recorded EC50 for various molecules
Reply numerically in µM, unit not repeated.

Query: // EC50 lookup, key: `O=c1c(O)c(-c2ccc(O)cc2O)oc2cc(O)cc(O)c12`
Reply: 17.5

Query: # iterate: Cc1cc(C(C)(C)C)c(O)c(C(C)(C)C)c1 [BHT, butylated hydroxytoluene, reference compound]
Reply: 89.8

Query: # iterate: `Oc1cc(O)cc(/C=C/c2ccc(O)cc2O)c1`
Reply: 44.4
